Recorded values, source ChEMBL document CHEMBL1201862.

# Test system: OVCAR-4
# Experiment Notes: NCI tumour cell line growth inhibition, 48 h
Active and inactive are the calls of the source. Rule as the data show it: active = GI50 up to about 1.1 µM and inactive = higher.
Below, each entry is listed with its recorded GI50.

Compound: CSc1nc2c(c(=O)n1C)N=C(c1ccc([N+](=O)[O-])cc1)CC(c1ccccc1)N2 (stereo not given)
Assayed System: OVCAR-4
GI50: 91.8 µM (inactive)
//
Compound: Cc1ccc(Cc2n[nH]c(=O)n2/N=C\CC/C=N\n2c(Cc3ccc(C)cc3)n[nH]c2=O)cc1
Assayed System: OVCAR-4
GI50: > 100 µM (inactive)
//
Compound: Cc1cc(=O)[nH]c(-n2[nH]c(C)c(CCO)c2=O)n1
Assayed System: OVCAR-4
GI50: > 100 µM (inactive)
//
Compound: C=C1C(=O)OC2C1CC1OC2C(C)CCC/C(C)=C\CCC1(C)O (stereo not given)
Assayed System: OVCAR-4
GI50: 18.2 µM (inactive)
//
Compound: CC12Nc3ccccc3C1=C(c1ccccc1)CC1C(=O)OC(=O)C12 (stereo not given)
Assayed System: OVCAR-4
GI50: > 100 µM (inactive)
